Dear all, this message contains Kd results, target or system GCP-KRASwt (Homo sapiens, UniProt P01116).
The reply should contain only the number, in µM.

Given `Cn1cnc(Cn2ccc3ccc(CNCc4[nH]c5ccccc5c4[C@H]4NC(=O)c5ccc(O)cc54)cc32)c1` , respond with its Kd.
7.5

State, in one line, measured Kd of `CN(C)Cc1[nH]c2ccccc2c1[C@H]1NC(=O)c2ccc(O)cc21`
49

====

Tested system: GDP-KRASG12D (Homo sapiens, UniProt P01116, G12D)
Sequence (P01116 1-169 isoform P01116-2 G12D): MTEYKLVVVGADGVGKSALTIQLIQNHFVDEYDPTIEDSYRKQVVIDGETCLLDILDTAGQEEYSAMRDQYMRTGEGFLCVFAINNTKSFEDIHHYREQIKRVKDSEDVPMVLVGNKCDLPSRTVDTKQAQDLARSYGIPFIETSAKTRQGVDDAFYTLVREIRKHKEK
Method summary: KD(HSQC) NMR
Format: binding
Description: 80 difference spectrum. Mixtures of four fragments (each at 250 µM) were incubated in 25 82 a mixture of GCP-KRASG12D and GDP-KRASG12V (each 4 µM). Binders were identified 83 by comparing pre-recorded reference spectra with the STD difference spectrum. […] 92 d6DMSO. Spectra were recorded with 32 transients and 64 data points in the indirect […] 100 support compound optimization. 1H/15N SoFast HMQC experiments(3) were recorded in […] 109 dimension were calculated according to the following equation: […]
Readout label: pKd
Would you please state pKd, meaning minus log10 of the concentration in mol/L, as a bare number?

Look up and report measured pKd for this entry: `CN(C)Cc1[nH]c2ccccc2c1[C@H]1NC(=O)c2ccc(O)cc21`
4.80

====

Answer each item with its documented Kd.

Given Cn1cnc(Cn2ccc3ccc(CNCc4[nH]c5ccccc5c4[C@H]4NC(=O)c5ccc(O)cc54)cc32)c1 [Compound 1] , report its Kd on GDP-KRASwt (Homo sapiens, UniProt P01116).
Sequence (P01116 1-169 isoform P01116-2): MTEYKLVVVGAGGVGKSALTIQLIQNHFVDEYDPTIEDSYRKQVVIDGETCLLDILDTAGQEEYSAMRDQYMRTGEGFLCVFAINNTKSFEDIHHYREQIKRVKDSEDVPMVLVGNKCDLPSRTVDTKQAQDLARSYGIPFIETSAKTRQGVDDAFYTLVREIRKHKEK
1.1 µM

Please report the measured Kd for CN(C)Cc1[nH]c2ccccc2c1[C@H]1NC(=O)c2ccc(O)cc21 [Compound 18] tested on GDP-KRASwt (Homo sapiens, UniProt P01116).
15 µM

====

Tested system: GCP-NRASwt (Homo sapiens, UniProt P01111, C118S)
Sequence (P01111 1-172 C118S): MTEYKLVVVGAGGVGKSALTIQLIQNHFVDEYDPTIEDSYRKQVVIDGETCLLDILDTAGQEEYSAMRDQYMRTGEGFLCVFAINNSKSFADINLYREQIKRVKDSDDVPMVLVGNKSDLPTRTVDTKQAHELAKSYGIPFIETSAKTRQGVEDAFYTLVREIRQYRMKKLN
Method summary: ITC
Condition set: 25°C
Exercise: state measured Kd for each of the compounds provided.
Number first, unit second: that is the form wanted.

Fill in reported Kd for this entry: Cn1cnc(Cn2ccc3ccc(CNCc4[nH]c5ccccc5c4[C@H]4NC(=O)c5ccc(O)cc54)cc32)c1 [Compound 1]
1.3 µM

Supply reported Kd belonging to this compound: CN(C)Cc1[nH]c2ccccc2c1[C@H]1NC(=O)c2ccc(O)cc21 [Compound 18]
33 µM

====

Tested system: GTP-KRASG12D::SOS1 (Homo sapiens, UniProt P01116, G12D)
Sequence (P01116 1-169 isoform P01116-2 G12D): as the sequence (P01116 1-169 isoform P01116-2 G12D) above
Method summary: KRASG12D::SOS1 GTP TR-FRET assay
Readout label: EC50 (µM)
Give just the number in µM; leave the unit off.

Indicate its recorded EC50; the compound in question is `CN(C)Cc1[nH]c2ccccc2c1[C@H]1NC(=O)c2ccc(O)cc21`
33

====

Test system: NCI-H358 cells
Method summary: pERK quantification (Meso Scale Discovery)
Type: cell-based, human
Condition set: Homo sapiens, NCI-H358; high growth factor conditions, 2 h; read-out: EC50 inhibition of pERK relative to total ERK
Readout label: pEC50
In textbook form, pEC50 equals minus log to base ten of the concentration in mol/L.

Fetch value of pEC50 on NCI-H358 cells for `Cn1cnc(Cn2ccc3ccc(CNCc4[nH]c5ccccc5c4[C@H]4NC(=O)c5ccc(O)cc54)cc32)c1` .
5.24

====

Tested system: GCP-KRASG12D (Homo sapiens, UniProt P01116, G12D)
Sequence (P01116 1-169 isoform P01116-2 G12D): as the sequence (P01116 1-169 isoform P01116-2 G12D) above
Method summary: HSQC NMR KD of fragment hits
Format: binding
Condition set: fragment screen hits, active form of KRAS
Readout label: Kd

Identify Kd associated with the compound `O=C(c1c[nH]c2ccccc12)N1CCNCC1`
> 2 mM

Supply reported Kd belonging to this compound: `Nc1ccc2nc(Cc3c[nH]c4ccccc34)[nH]c2c1`
1.3 mM

Item `c1ccc2c(CN3CCOCC3)c[nH]c2c1` : provide Kd
> 5 mM

Look up Kd of `Clc1ccc2[nH]c3c(c2c1)CNCC3` and report it.
> 2 mM

Please look at this compound and report its Kd: `Nc1nc2ccccc2n1Cc1ccccc1`
> 2 mM
